Target: GABAa receptor
Experiment: GABAa receptor binding, displacement of 3H-RO15-1788 [3H-Flumazenil]
Details: rat cortical tissue, 0.5 nM 3H-RO15-1788, 30 min at 4° C., pH 7.4
Listed below: Ki values for each entry.
assay_metric: Ki (µM)

O=c1[nH]c2cc(F)ccc2n1-c1nc2ccc(F)cc2o1 [Compound 4] ... 0.025
O=c1[nH]c2c(n1-c1nc3ccc(F)c(F)c3o1)CCCCC2 [Compound 1] ... 0.003
O=c1[nH]c2c(n1-c1nc3ccc(F)c(F)c3o1)CCCC2 [Compound 5] ... 0.021
O=c1[nH]c2cc(F)ccc2n1-c1nc2cccc(F)c2o1 [Compound 3] ... 0.014
O=c1[nH]c2c(n1-c1nc3ccc(F)cc3o1)CCCCC2 [Compound 2] ... 0.0046
COc1ccc2oc(-n3c4c([nH]c3=O)CCCC4)nc2c1 [Compound 6] ... 0.081
